B1: SNAP91 (parent)
chain: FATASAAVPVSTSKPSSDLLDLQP

# Variants of: B1
# TEST PROTOCOL: protein stability index of a GFP-peptide fusion (GPS, HEK-293T) (PSI 1-6); higher = more stable;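 also: lentivirally expressed fusions sorted by FACS into six bins by GFP to DsRed ratio, PSI derived from sequencing read proportions per bin multiplied by bin number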
# MEASUREMENT CONTEXT: c terminus: a fixed tail appended
rule met means recorded protein stability index is 3 or above; rule not met means it is below 3.

sequence_data="FKTASAAVPVSTSKPSSDLLDLQP [A2K]" classification="rule met"
sequence_data="FATWSAAVPVSTSKPSSDLLDLQP [A4W]" classification="rule not met"
sequence_data="FATASAAVPVSTSKPSSGLLDLQP [D18G]" classification="rule met"
sequence_data="FITASAAVPVSTSKPSSDLLDLQP [A2I]" classification="rule not met"
sequence_data="FATASAAVPVSTSKPSSDLLDLQH [P24H]" classification="rule met"
sequence_data="FATASAAVCVSTSKPSSDLLDLQP [P9C]" classification="rule not met"
sequence_data="KATASAAVPVSTSKPSSDLLDLQP [F1K]" classification="rule met"
sequence_data="FATASAAVPVSGSKPSSDLLDLQP [T12G]" classification="rule met"
sequence_data="FATASAAVPVSTGKPSSDLLDLQP [S13G]" classification="rule met"
sequence_data="FATASAAVPVSTSKPSSDLLELQP [D21E]" classification="rule met"
sequence_data="FATASAAVPVSTSFPSSDLLDLQP [K14F]" classification="rule not met"
sequence_data="FATASAAVPVSVSKPSSDLLDLQP [T12V]" classification="rule met"
sequence_data="FATASAAQPVSTSKPSSDLLDLQP [V8Q]" classification="rule met"
sequence_data="FATASAALPVSTSKPSSDLLDLQP [V8L]" classification="rule met"
sequence_data="FATASAAVPVSTSKRSSDLLDLQP [P15R]" classification="rule not met"
sequence_data="FATASAAVPVSTSKPSSDRLDLQP [L19R]" classification="rule met"
sequence_data="FATLSAAVPVSTSKPSSDLLDLQP [A4L]" classification="rule not met"
sequence_data="FATASAAVPVSCSKPSSDLLDLQP [T12C]" classification="rule not met"
